Origin of values: patent US7118895B2

test system: Crude diglycosidase; assay: Examination of pH in the conversion into isoflavone aglycons by diglycosidase using soybean materials; assay type: biochemical, Penicillium multicolor IAM7153; settings: pH3, heat treatment of enzyme no, reaction time 1 h, 55° C.
PROPERTY_LABEL: Decomposition efficiency of glycitin family in roasted soy flour
Could you respond with only the numeric value?

Consider the compound COc1cc2c(=O)c(-c3ccc(O)cc3)coc2cc1O and give its measured Decomposition efficiency of glycitin family in roasted soy flour.
61.3

Now give it for COc1cc2c(=O)c(-c3ccc(O)cc3)coc2cc1O[C@@H]1O[C@H](COC(C)=O)[C@@H](O)[C@H](O)[C@H]1O too.
38.7
